- System: COLO 205 colon
- method.summary: NCI tumour cell line growth inhibition, 48 h
TGI overview

Use the examples below as a reference point.
| molecule | TGI |
| --- | --- |
| O=C1C=C(N2CCCC2)C=C(N2CCCC2)C1 | > 100 µM |
| Cc1ccc(S(=O)(=O)N2CCCSCCSCCCSCC2)cc1 | > 100 µM |
| O=[N+]([O-])c1ccc(Cl)cc1-n1nc(-c2ccccc2)cc1-c1ccccc1 | > 100 µM |

Provide only the value of recorded TGI for CC(=O)OC1/C(=C/c2ccc([N+](=O)[O-])cc2)C[C@H]2[C@@H]3CC=C4C[C@@H](OC(C)=O)CC[C@]4(C)[C@H]3CC[C@]12C (some centres not stated)
> 100 µM

Provide only the value of recorded TGI for "O=c1c(Cl)nnc2sc3ccccc3n12"
> 100 µM

Provide only the value of recorded TGI for "O=S(=O)(O)CS(=O)(=O)OCCCl"
> 100 µM

Provide only the value of recorded TGI for "CC(=O)Nc1ccc(Nc2cc(=O)n(C)c(=O)[nH]2)cc1"
> 100 µM

Provide only the value of recorded TGI for Cc1ccc(/C=C2\CN(C)CC3C(c4ccc(C)cc4)=C(C#N)C(=O)NC23)cc1 (configuration not stated)
> 50 µM

Provide only the value of recorded TGI for "O=C(O)C(Cc1ccc2c(c1)CCC2)(Cc1ccc2c(c1)CCC2)C(=O)O"
> 100 µM

The reported measurements were obtained from PubChem BioAssay (NCI).
